assay: Solubility of a compound in water; assay type: physicochemical; conditions: compound added until saturated
experimental.readout: Solubility in Water (mg/mL)
Give bare numbers, in mg/mL.

Examples with answers:
molecule: Nc1ccccc1NC(=O)c1ccc(CNC(=O)OCc2cccnc2)cc1 [MS-275, Entinostat, reference compound]
val: 0.016
//
molecule: Cl.NCC(=O)Nc1ccccc1NC(=O)c1ccc(CNC(=O)OCc2cccnc2)cc1 [Gly-MS-275•HCl]
val: 68

Pending molecule:
Q) // Solubility in Water lookup, key: Cl.Cl.N=C(N)NCCC[C@H](N)C(=O)Nc1ccccc1NC(=O)CCCCCC(=O)Nc1cccc(Br)c1 [Arg-CC30•HCl]
A) 100
